Assay: solvent given as SMILES
Conditions: in C=CCCCC

{"columns": ["Compound Structure String", "solvation free energy, 298 K / kJ/mol"],
 "data": [
  ["CCCCCC", -16.8],
  ["CCCCCCCC", -22.6],
  ["CC(C)CCC(C)C", -20.7],
  ["CCCCCCC", -19.7],
  ["CCCCC", -14],
  ["CSC", -12.8],
  ["CC(C)C(C)C(C)C", -20.9],
  ["CCCCCCCCC", -25.5]
]}

---

Documented solvation free energy, 298 K across a set of molecules
Experiment: solvent given as SMILES
Conditions: in CC(O)COC(C)(C)C

{"columns": ["Compound Structure String", "solvation free energy, 298 K, kcal/mol"],
 "data": [
  ["c1cc2ccc3cccc4ccc(c1)c2c34", -12.3],
  ["c1ccc2cc3ccccc3cc2c1", -10.5],
  ["COc1ccc(C(=O)O)cc1", -11.9],
  ["NC(=O)c1ccccc1O", -12.6]
]}

---

Assay: solvent given as SMILES
Conditions: in CCCCCC
solvation free energy, 298 K less than -7 kcal/mol is met; solvation free energy, 298 K greater than or equal to -7 kcal/mol is not met.

{"columns": ["Molecule", "Group"],
 "data": [
  ["CCC(C)O (stereo not given)", "not met"],
  ["C=CC", "not met"],
  ["CC(=O)c1ccccc1", "not met"],
  ["CC(C)=O", "not met"],
  ["CCOCCO", "not met"],
  ["Oc1ccc2ccccc2c1", "met"],
  ["O=S(=O)(c1ccccc1)c1ccccc1", "met"],
  ["ClCCCCl", "not met"],
  ["CCCCC", "not met"],
  ["Brc1ccc(Br)cc1", "met"],
  ["c1ccc(-c2ccccc2)cc1", "met"],
  ["C1CCOC1", "not met"],
  ["c1ccc2cc3ccccc3cc2c1", "met"],
  ["c1cc2ccc3cccc4ccc(c1)c2c34", "met"],
  ["Oc1ccccc1O", "not met"],
  ["CC(C)CCC(C)C", "not met"],
  ["O=[N+]([O-])c1ccc(Cl)c(Cl)c1", "met"],
  ["CCCCCCl", "not met"],
  ["Br", "not met"],
  ["CCCCCCC", "not met"],
  ["Clc1cccc(Cl)c1", "not met"]
]}

---

Test: solvent given as SMILES
Conditions: in Brc1ccccc1
I would appreciate it if you labelled entries t when solvation free energy, 298 K is -5 kcal/mol or higher, otherwise f.

{"columns": ["Molecule", "Group"],
 "data": [
  ["c1ccc2cc3ccccc3cc2c1", "f"],
  ["C[N+](=O)[O-]", "t"],
  ["CCCCCCCCC", "f"],
  ["CCCCC", "t"],
  ["CC(C)CCC(C)C", "t"],
  ["CCCCCCC", "t"],
  ["FC(F)(F)F", "t"],
  ["CCC(C)O (stereo unspecified)", "t"],
  ["Oc1ccc2ccccc2c1", "f"],
  ["CCCCCCO", "f"],
  ["CCO", "t"],
  ["c1cc2ccc3cccc4ccc(c1)c2c34", "f"],
  ["CC(C)C(C)C(C)C", "t"],
  ["CCCCCC", "t"],
  ["CCI", "t"]
]}
